Data origin: ChEMBL document CHEMBL3046886

Study target: Sodium-dependent serotonin transporter (Homo sapiens)
Sequence (P31645 whole entry): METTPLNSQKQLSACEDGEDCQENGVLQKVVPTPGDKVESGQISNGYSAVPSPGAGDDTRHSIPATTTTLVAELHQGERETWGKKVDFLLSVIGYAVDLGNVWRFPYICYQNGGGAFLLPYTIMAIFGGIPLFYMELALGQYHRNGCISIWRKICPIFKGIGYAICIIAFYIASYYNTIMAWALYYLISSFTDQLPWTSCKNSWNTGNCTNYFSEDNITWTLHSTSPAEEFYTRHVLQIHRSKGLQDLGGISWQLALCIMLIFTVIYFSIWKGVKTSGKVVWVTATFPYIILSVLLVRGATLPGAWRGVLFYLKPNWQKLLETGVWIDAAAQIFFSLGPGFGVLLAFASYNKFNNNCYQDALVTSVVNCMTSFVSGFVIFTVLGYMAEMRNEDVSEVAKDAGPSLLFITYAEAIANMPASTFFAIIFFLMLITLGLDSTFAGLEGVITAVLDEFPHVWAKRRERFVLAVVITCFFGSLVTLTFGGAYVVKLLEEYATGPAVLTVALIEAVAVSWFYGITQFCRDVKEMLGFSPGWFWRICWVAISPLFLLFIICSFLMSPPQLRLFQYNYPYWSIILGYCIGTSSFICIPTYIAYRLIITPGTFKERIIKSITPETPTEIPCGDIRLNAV
A collection of molecules and their measured IC50
Kindly answer with a numeric value in µM, unit omitted.

Record summary for Cc1cccc(N2CCN(CCc3ccc4nn[nH]c4c3)CC2)c1C : reported IC50 = 0.26

Now for another entry.
Record summary for c1ccc2c(N3CCN(CCc4ccc5[nH]cnc5c4)CC3)cccc2c1 : reported IC50 = 1.76

---

Study target: UniProtKB P28223
Sequence (P28223 whole entry): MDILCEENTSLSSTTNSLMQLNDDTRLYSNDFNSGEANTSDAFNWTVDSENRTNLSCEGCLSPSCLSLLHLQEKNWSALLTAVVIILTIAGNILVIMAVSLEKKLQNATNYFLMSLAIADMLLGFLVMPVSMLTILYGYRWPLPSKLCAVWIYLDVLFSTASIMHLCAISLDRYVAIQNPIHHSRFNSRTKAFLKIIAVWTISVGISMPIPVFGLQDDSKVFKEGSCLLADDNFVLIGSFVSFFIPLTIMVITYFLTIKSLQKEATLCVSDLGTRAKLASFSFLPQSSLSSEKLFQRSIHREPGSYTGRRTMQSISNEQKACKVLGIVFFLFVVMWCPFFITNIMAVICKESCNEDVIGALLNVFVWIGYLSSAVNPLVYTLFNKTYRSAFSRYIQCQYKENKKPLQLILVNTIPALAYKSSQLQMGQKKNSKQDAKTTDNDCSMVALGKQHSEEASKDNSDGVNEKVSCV
Test context: read-out: Ki
Assay endpoint: Ki

Record summary for O=[N+]([O-])c1ccc(CCN2CCN(c3ccccc3)CC2)cc1[N+](=O)[O-] : reported Ki = 5.1 nM

---

Study target: 5-hydroxytryptamine receptor 2C (Homo sapiens, UniProt P28335)
Sequence (P28335 whole entry): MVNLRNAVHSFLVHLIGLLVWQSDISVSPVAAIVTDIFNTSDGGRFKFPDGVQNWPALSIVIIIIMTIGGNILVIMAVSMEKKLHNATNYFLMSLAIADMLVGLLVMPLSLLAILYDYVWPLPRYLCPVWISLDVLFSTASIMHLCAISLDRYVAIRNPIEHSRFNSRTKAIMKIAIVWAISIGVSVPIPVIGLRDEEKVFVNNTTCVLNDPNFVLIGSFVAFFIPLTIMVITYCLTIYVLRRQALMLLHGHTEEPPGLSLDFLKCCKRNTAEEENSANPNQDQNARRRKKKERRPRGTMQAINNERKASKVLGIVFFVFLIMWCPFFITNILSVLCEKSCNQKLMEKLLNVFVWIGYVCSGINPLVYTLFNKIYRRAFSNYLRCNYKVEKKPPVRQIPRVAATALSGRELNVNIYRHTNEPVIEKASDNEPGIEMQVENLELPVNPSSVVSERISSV
Assay endpoint: Ki
Reply with a number, then the unit it belongs to.

Ki for 5-hydroxytryptamine receptor 2C (Homo sapiens, UniProt P28335) with input c1ccc2c(N3CCN(CCc4ccc5[nH]cnc5c4)CC3)cccc2c1 equals 64.6 nM

---

Study target: 5-hydroxytryptamine receptor 1A (Homo sapiens, UniProt P08908)
Sequence (P08908 whole entry): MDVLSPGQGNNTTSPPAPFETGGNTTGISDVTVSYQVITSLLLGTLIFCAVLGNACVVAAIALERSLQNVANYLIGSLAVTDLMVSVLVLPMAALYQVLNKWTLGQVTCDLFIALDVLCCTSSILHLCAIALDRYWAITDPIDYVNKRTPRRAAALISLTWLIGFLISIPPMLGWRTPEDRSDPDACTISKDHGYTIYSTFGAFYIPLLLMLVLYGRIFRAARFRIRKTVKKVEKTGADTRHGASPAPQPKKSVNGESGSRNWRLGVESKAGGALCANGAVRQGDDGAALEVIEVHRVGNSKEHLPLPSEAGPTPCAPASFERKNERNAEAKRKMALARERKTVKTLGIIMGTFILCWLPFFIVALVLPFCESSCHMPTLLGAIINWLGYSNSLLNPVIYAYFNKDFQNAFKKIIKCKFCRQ
Measurement notes: Binding affinity to 5-HT1A receptor (unknown origin)
Test context: read-out: Ki
Assay endpoint: Ki
Reply with a number, then the unit it belongs to.

Ki for 5-hydroxytryptamine receptor 1A (Homo sapiens, UniProt P08908) with input O=[N+]([O-])c1ccc(CCN2CCN(c3ccccc3)CC2)cc1[N+](=O)[O-] equals 90.2 nM

---

A collection of molecules and their measured pKi
Study target: D(2) dopamine receptor (Rattus norvegicus, UniProt P61169)
Sequence (P61169 whole entry): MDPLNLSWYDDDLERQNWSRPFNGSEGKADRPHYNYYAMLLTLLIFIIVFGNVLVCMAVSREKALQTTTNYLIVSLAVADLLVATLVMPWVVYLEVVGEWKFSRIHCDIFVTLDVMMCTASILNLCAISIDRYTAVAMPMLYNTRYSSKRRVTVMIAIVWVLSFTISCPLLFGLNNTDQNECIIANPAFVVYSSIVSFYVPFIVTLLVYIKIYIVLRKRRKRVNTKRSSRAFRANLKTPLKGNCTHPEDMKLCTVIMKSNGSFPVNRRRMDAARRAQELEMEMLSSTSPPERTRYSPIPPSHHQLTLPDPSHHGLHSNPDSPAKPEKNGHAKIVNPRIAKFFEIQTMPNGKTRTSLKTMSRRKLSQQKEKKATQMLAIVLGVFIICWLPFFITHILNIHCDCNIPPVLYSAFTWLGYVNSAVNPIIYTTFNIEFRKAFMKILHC
Measurement notes: Displacement of [3H]quinpirole from high affinity agonist binding site of D2 receptor in Rattus norvegicus (rat) striatal membrane
Parameters: species or system Striatum
Lab note — pKi values are minus log10 of concentrations in M.

In the examples that follow, each entry is paired with its recorded pKi.
Record summary for Brc1ccc(-[n+]2cc[n+](Cc3ccccc3)cc2)c2cc[nH]c12 : reported pKi = 7.57

Record summary for O=C1Cc2c(ccc(Cl)c2N2CCN(Cc3ccccc3)CC2)N1 : reported pKi = 7.26

Record summary for c1ccc(C[n+]2cc[n+](-c3cccc4[nH]cnc34)cc2)cc1 : reported pKi = 8.01

Record summary for FC(F)(F)c1nc2c(-[n+]3cc[n+](Cc4ccccc4)cc3)cccc2[nH]1 : reported pKi = 9.29

More entries:
Record summary for Clc1ccc2[nH]ccc2c1-[n+]1cc[n+](Cc2ccccc2)cc1 : reported pKi = 8.04

---

Study target: D(2) dopamine receptor (Homo sapiens)
Measurement notes: Binding affinity to dopamine D2 receptor (unknown origin)
Test context: read-out: Ki
Assay endpoint: pKi
Lab note — pKi values are minus log10 of concentrations in M.

In the examples that follow, each entry is paired with its recorded pKi.
Record summary for COc1ccccc1N1CCN(CCOc2ccc3nn[nH]c3c2)CC1 : reported pKi = 8.82

Record summary for COc1ccccc1N1CCN(CCCc2ccc3[nH]c(=S)[nH]c3c2)CC1 : reported pKi = 9.40

Record summary for S=c1[nH]c2ccc(CCCN3CCN(c4ccc(Cl)cc4)CC3)cc2[nH]1 : reported pKi = 7.70

Now for another entry.
Record summary for COc1ccc(N2CCN(CCOc3ccc4[nH]c(=S)[nH]c4c3)CC2)cc1 : reported pKi = 6.98

---

Organism: Rattus norvegicus
Measurement notes: Rattus norvegicus (rat)io of Ki for low affinity antagonist binding site of D2 receptor to high affinity agonist binding site of D2 receptor in Rattus norvegicus (rat) striatal membrane
Test context: Striatum
A collection of molecules and their measured Ratio Ki

In the examples that follow, each entry is paired with its recorded Ratio Ki.
Record summary for Clc1ccc2[nH]ccc2c1-[n+]1cc[n+](Cc2ccccc2)cc1 : reported Ratio Ki = 5

Record summary for O=C1Cc2c(ccc(Cl)c2N2CCN(Cc3ccccc3)CC2)N1 : reported Ratio Ki = 7

Record summary for FC(F)(F)c1nc2c(-[n+]3cc[n+](Cc4ccccc4)cc3)cccc2[nH]1 : reported Ratio Ki = 6

More entries:
Record summary for O=C1Cc2c(cccc2N2CCN(Cc3ccccc3)CC2)N1 : reported Ratio Ki = 14

Record summary for c1ccc(C[n+]2cc[n+](-c3cccc4[nH]cnc34)cc2)cc1 : reported Ratio Ki = 11

Record summary for Brc1ccc(-[n+]2cc[n+](Cc3ccccc3)cc2)c2cc[nH]c12 : reported Ratio Ki = 0.5

Record summary for CCCN1CCC[C@@H](c2cccc(O)c2)C1 : reported Ratio Ki = 33

---

A collection of compounds and their measured pKi
Study target: D(1A) dopamine receptor (Homo sapiens)
Sequence (P21728 whole entry): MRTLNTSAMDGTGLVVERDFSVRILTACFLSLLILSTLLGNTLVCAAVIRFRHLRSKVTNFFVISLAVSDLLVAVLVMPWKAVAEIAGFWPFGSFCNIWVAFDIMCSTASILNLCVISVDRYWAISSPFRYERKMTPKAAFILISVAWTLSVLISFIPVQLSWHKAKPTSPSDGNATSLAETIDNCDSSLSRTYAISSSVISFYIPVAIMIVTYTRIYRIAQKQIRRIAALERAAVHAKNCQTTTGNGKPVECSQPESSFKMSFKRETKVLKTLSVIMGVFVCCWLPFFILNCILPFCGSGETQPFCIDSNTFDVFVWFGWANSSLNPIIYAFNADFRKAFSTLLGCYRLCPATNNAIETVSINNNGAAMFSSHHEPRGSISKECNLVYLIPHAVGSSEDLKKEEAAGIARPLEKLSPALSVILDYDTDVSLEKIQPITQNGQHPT
Measurement notes: Binding affinity to dopamine D1 receptor (unknown origin)
Test context: read-out: Ki
pKi: −log10 of the molar value.

In the examples that follow, each entry is paired with its recorded pKi.
Record summary for S=c1[nH]c2ccc(OCCN3CCN(c4ccccc4Cl)CC3)cc2[nH]1 : reported pKi = 6.35

Record summary for COc1ccc(N2CCN(CCOc3ccc4nc[nH]c4c3)CC2)cc1 : reported pKi = < 6.00

Record summary for FC(F)(F)c1cccc(N2CCN(CCCc3ccc4nc[nH]c4c3)CC2)c1 : reported pKi = < 6.00

Record summary for O=c1[nH]c2ccc(OCCN3CCN(c4ccccc4Cl)CC3)cc2[nH]1 : reported pKi = 6.39

More entries:
Record summary for O=c1[nH]c2ccc(OCCN3CCN(c4ccc(Cl)cc4)CC3)cc2[nH]1 : reported pKi = < 6.00

Record summary for Clc1ccc(N2CCN(CCCc3ccc4nc[nH]c4c3)CC2)cc1 : reported pKi = < 6.00

Record summary for COc1cccc(N2CCN(CCOc3ccc4[nH]c(=O)[nH]c4c3)CC2)c1 : reported pKi = < 6.00

Record summary for COc1ccccc1N1CCN(CCOc2ccc3[nH]c(=S)[nH]c3c2)CC1 : reported pKi = < 6.00

Record summary for c1ccc(N2CCN(CCCc3ccc4nc[nH]c4c3)CC2)cc1 : reported pKi = < 6.00

Record summary for O=c1[nH]c2ccc(OCCN3CCN(c4ccccc4)CC3)cc2[nH]1 : reported pKi = < 6.00

Record summary for COc1ccccc1N1CCN(CCCc2ccc3[nH]c(=S)[nH]c3c2)CC1 : reported pKi = < 6.00

Record summary for COc1ccccc1N1CCN(CCOc2ccc3[nH]c(=O)[nH]c3c2)CC1 : reported pKi = < 6.00

---

A collection of compounds and their measured Ki
Study target: D(2) dopamine receptor (Rattus norvegicus, UniProt P61169)
Measurement notes: Displacement of [3H]spiperone from low affinity antagonist binding site of D2 receptor in Rattus norvegicus (rat) striatal membrane
Parameters: species or system Striatum

Record summary for Brc1ccc(-[n+]2cc[n+](Cc3ccccc3)cc2)c2cc[nH]c12 : reported Ki = 12.2 nM

Record summary for c1ccc(C[n+]2cc[n+](-c3cccc4[nH]cnc34)cc2)cc1 : reported Ki = 107 nM

Record summary for FC(F)(F)c1nc2c(-[n+]3cc[n+](Cc4ccccc4)cc3)cccc2[nH]1 : reported Ki = 3.3 nM

Now for another entry.
Record summary for Clc1ccc2[nH]ccc2c1-[n+]1cc[n+](Cc2ccccc2)cc1 : reported Ki = 42.3 nM

---

Study target: D(2) dopamine receptor (Homo sapiens, UniProt P14416)
Sequence (P14416 whole entry): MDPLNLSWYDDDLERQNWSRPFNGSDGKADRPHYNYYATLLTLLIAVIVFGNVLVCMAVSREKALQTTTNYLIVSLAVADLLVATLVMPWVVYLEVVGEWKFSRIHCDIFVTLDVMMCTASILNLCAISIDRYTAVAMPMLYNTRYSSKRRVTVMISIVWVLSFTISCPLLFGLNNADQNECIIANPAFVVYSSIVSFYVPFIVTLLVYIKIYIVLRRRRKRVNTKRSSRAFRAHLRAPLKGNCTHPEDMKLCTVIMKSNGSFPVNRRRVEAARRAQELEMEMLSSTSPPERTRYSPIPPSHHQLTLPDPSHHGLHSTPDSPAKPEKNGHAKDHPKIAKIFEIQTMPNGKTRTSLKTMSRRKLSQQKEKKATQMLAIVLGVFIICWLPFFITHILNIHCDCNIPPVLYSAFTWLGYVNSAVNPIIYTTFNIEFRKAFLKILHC
Measurement notes: Binding affinity to dopamine D2 receptor (unknown origin)
Test context: read-out: Ki
Assay endpoint: pKi
Lab note — pKi values are minus log10 of concentrations in M.

In the examples that follow, each entry is paired with its recorded pKi.
pKi for D(2) dopamine receptor (Homo sapiens, UniProt P14416) with input FC(F)(F)c1cccc(N2CCN(CCCc3ccc4[nH]c(=S)[nH]c4c3)CC2)c1 equals 8.24

pKi for D(2) dopamine receptor (Homo sapiens, UniProt P14416) with input COc1ccccc1N1CCN(CCCc2ccc3nc[nH]c3c2)CC1 equals 7.01

pKi for D(2) dopamine receptor (Homo sapiens, UniProt P14416) with input S=c1[nH]c2ccc(OCCN3CCN(c4ccccc4)CC3)cc2[nH]1 equals 9.17

pKi for D(2) dopamine receptor (Homo sapiens, UniProt P14416) with input COc1ccccc1N1CCN(CCOc2ccc3[nH]c(=O)[nH]c3c2)CC1 equals 8.89

More entries:
pKi for D(2) dopamine receptor (Homo sapiens, UniProt P14416) with input c1ccc(N2CCN(CCCc3ccc4nc[nH]c4c3)CC2)cc1 equals 6.89

pKi for D(2) dopamine receptor (Homo sapiens, UniProt P14416) with input O=c1[nH]c2ccc(OCCN3CCN(c4cccc(Cl)c4)CC3)cc2[nH]1 equals 7.34

pKi for D(2) dopamine receptor (Homo sapiens, UniProt P14416) with input O=[N+]([O-])c1ccc(CCN2CCN(c3ccccc3)CC2)cc1[N+](=O)[O-] equals 7.29

pKi for D(2) dopamine receptor (Homo sapiens, UniProt P14416) with input S=c1[nH]c2ccc(OCCN3CCN(c4cccc(Cl)c4)CC3)cc2[nH]1 equals 8.15

pKi for D(2) dopamine receptor (Homo sapiens, UniProt P14416) with input COc1cccc(N2CCN(CCOc3ccc4[nH]c(=S)[nH]c4c3)CC2)c1 equals 7.88

pKi for D(2) dopamine receptor (Homo sapiens, UniProt P14416) with input FC(F)(F)c1cccc(N2CCN(CCOc3ccc4[nH]c(=S)[nH]c4c3)CC2)c1 equals 8.23

pKi for D(2) dopamine receptor (Homo sapiens, UniProt P14416) with input O=c1[nH]c2ccc(OCCN3CCN(c4cccc(C(F)(F)F)c4)CC3)cc2[nH]1 equals 7.58

pKi for D(2) dopamine receptor (Homo sapiens, UniProt P14416) with input O=c1[nH]c2ccc(OCCN3CCN(c4ccccc4)CC3)cc2[nH]1 equals 8.12

pKi for D(2) dopamine receptor (Homo sapiens, UniProt P14416) with input S=c1[nH]c2ccc(CCCN3CCN(c4ccccc4)CC3)cc2[nH]1 equals 8.52

pKi for D(2) dopamine receptor (Homo sapiens, UniProt P14416) with input S=c1[nH]c2ccc(OCCN3CCN(c4ccccc4Cl)CC3)cc2[nH]1 equals 8.56

pKi for D(2) dopamine receptor (Homo sapiens, UniProt P14416) with input COc1ccc(N2CCN(CCCc3ccc4[nH]c(=S)[nH]c4c3)CC2)cc1 equals 7.48

pKi for D(2) dopamine receptor (Homo sapiens, UniProt P14416) with input COc1cccc(N2CCN(CCOc3ccc4[nH]c(=O)[nH]c4c3)CC2)c1 equals 7.35

pKi for D(2) dopamine receptor (Homo sapiens, UniProt P14416) with input COc1ccccc1N1CCN(CCOc2ccc3[nH]c(=S)[nH]c3c2)CC1 equals 9.72

pKi for D(2) dopamine receptor (Homo sapiens, UniProt P14416) with input COc1ccccc1N1CCN(CCOc2ccc3nc[nH]c3c2)CC1 equals 7.90
